- Tested on: RPMI-8226 leukemia
- protocol: NCI-60 one-dose screen, 48 h (100 = growth as untreated, 0 = no growth, -100 = all killed)
- conditions: 10 µM unless noted
This is part of a sample that, as a whole, favours compounds with a hit. Of some 83,000 tested, about 20% had one in any assay.
resultType: growth (%)
Answer with a number only, understood to be in %.

Completed entries (count: 3):
molecule	growth [%]
Cc1cc(C(=O)CSc2nc3ccccc3c(=O)[nH]2)c(C)n1C	91.6
CCOC(=O)C(Cc1ccccc1)n1c(O)c(C=Nc2ccc(C(=O)OCCN(CC)CC)cc2)sc1=O (stereo not drawn)	68
Cc1ccc(S(=O)(=O)N2CCC(C(=O)Nc3ccc(F)cc3F)CC2)cc1	86.5

Observed growth on RPMI-8226 leukemia for `CC1=CNNc2c3ncnc-3ncn21` , please.
103

Observed growth on RPMI-8226 leukemia for `O=C1Nc2ccc(Br)cc2C1=N/C=c1\[nH]c(=O)/c(=C/c2ccc(Cl)cc2)s1` , please.
98.2

Observed growth on RPMI-8226 leukemia for `CCCS(=O)(=O)c1nc(NC2CC2)cc(-c2ccc3c(ccn3C3CC(C)(C)NC(C)(C)C3)c2)n1` , please.
-32.6

Observed growth on RPMI-8226 leukemia for `O=C1Nc2cc(Cl)ccc2/C1=C/c1ccc(N2CCOCC2)s1` , please.
85.7

Observed growth on RPMI-8226 leukemia for CCCCn1c(=O)c(C2CNC(=O)c3ccccc3N2)cc2ccccc21 (stereo not drawn) , please.
109

Observed growth on RPMI-8226 leukemia for `NC(=O)NC(=O)/C=C/C(=O)OCCCl` , please.
93.3

Observed growth on RPMI-8226 leukemia for `COc1cc(NC(=O)c2cc3ccccc3nc2Nc2ccc(F)cc2)cc(OC)c1OC` , please.
29.8

Observed growth on RPMI-8226 leukemia for `COc1ccc(/C=C(\C#N)c2ccc([N+](=O)[O-])cc2)c2ccccc12` , please.
82.8

Observed growth on RPMI-8226 leukemia for `COc1ccc(C(=O)/C=C/c2cccc([N+](=O)[O-])c2)c(OC)c1` , please.
-16.8

Observed growth on RPMI-8226 leukemia for `Cc1ccc(S(=O)(=O)NCCCNc2nccc(-c3c(-c4ccccc4)nc4sccn34)n2)cc1` , please.
25.6

Entry source: PubChem BioAssay (NCI)
